All values here come from patent US20110015162A1.

# ASSAY_TARGET: progesterone receptor (Homo sapiens, UniProt P06401)
# Construct: made in house; host or cells: Hi5 insect cells (cytosol)
# Sequence (P06401 whole entry, species assumed): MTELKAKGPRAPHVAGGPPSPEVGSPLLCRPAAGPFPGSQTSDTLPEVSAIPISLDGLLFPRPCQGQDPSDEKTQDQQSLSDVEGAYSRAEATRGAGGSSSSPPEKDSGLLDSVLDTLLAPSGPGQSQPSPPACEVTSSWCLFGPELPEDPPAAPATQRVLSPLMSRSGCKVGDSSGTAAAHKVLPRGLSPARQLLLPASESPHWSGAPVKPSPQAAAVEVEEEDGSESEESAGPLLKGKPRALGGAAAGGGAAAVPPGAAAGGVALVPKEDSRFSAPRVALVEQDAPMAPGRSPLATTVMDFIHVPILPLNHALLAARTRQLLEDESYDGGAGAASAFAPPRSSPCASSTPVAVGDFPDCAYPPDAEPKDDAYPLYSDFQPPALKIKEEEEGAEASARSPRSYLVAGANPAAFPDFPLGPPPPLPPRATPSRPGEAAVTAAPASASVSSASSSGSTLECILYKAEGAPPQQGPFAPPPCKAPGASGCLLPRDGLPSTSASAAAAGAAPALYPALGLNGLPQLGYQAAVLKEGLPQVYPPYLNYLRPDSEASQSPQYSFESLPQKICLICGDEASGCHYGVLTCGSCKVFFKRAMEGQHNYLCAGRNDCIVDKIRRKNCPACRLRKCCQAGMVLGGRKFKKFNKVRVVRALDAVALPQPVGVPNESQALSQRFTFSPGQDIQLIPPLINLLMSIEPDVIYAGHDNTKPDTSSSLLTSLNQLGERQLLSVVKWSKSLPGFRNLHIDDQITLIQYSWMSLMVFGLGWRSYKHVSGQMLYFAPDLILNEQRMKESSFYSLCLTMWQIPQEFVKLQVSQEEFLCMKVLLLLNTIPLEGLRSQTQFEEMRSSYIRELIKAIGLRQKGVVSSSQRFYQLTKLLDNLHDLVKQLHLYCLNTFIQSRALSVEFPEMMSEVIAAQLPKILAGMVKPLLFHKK
# PROTOCOL_TEXT: Progesterone receptor binding test
# SETTINGS: ratio of competition factors CF(PR) and CF(MR)

COMPOUND	CF PR/CF MR
CC[C@]12CC[C@H]3[C@@H](C=CC4=CC(=O)CC[C@@H]43)[C@@H]1[C@@H]1C[C@@H]1[C@@]21C=CC(=O)O1	1.81
CC[C@@H]1CC2=CC(=O)CC[C@@H]2[C@H]2CC[C@@]3(C)[C@@H]([C@@H]4C[C@@H]4[C@@]34C=CC(=O)O4)[C@H]12 [Example 24A]	21.87
CC[C@]12CC[C@H]3[C@H]([C@@H]1[C@@H]1C[C@@H]1[C@@]21C=CC(=O)O1)[C@H](C)CC1=CC(=O)CC[C@@H]13	4.43
CC[C@@H]1CC2=CC(=O)CC[C@@H]2[C@H]2CC[C@@]3(CC)[C@@H]([C@@H]4C[C@@H]4[C@@]34C=CC(=O)O4)[C@H]12	12.00
CC[C@@H]1CC2=CC(=O)CC[C@@H]2[C@H]2CC[C@@]3(C)[C@@H]([C@H]4C[C@H]4[C@@]34C=CC(=O)O4)[C@H]12 [Example 15A]	10.45
C[C@]12CC[C@H]3[C@@H](CCC4=CC(=O)CC[C@@H]43)[C@@H]1[C@@H]1C[C@@H]1[C@@]21C=CC(=O)O1	0.01
CC[C@]12CC[C@H]3[C@H]([C@@H]1[C@@H]1C[C@@H]1[C@@]21C=CC(=O)O1)[C@H](C1CC1)CC1=CC(=O)CC[C@@H]13	3.03
C=C[C@@H]1CC2=CC(=O)CC[C@@H]2[C@H]2CC[C@@]3(CC)[C@@H]([C@@H]4C[C@@H]4[C@@]34C=CC(=O)O4)[C@@H]21	3.23
